target-under-test: Neutrophil elastase (Homo sapiens)
Sequence (whole entry): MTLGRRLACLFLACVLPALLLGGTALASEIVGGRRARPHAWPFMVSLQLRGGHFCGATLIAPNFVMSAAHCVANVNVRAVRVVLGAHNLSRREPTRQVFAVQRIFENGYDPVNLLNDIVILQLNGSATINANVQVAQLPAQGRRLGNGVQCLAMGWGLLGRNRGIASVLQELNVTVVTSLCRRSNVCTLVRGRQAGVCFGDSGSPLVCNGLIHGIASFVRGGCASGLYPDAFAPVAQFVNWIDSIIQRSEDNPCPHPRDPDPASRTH
assay-comment: Inhibition of human neutrophil elastase assessed as ratio of observed rate constant to drug concentration by incubation method
Set-up: unit not given here
attribute-measured: Ratio

Solved cases (4 shown):
CCC[C@H]1C(=O)N(C(CCC(=O)OC)Sc2ccc(OC)cc2)S(=O)(=O)N1C (stereo partly drawn): 70
CCC[C@H]1C(=O)N(C(CCC(=O)OC)Sc2ccc(NC(=O)c3ccccc3C(=O)O)cc2)S(=O)(=O)N1C (stereo partly drawn): 260
CCC[C@H]1C(=O)N(C(CCC(=O)OC)Sc2ccc(NC(=O)CCC(=O)O)cc2)S(=O)(=O)N1C (stereo partly drawn): 300
CCC[C@H]1C(=O)N(C(CCC(=O)OC)Sc2ccc(NC(=O)NCCc3ccccc3)cc2)S(=O)(=O)N1C (stereo partly drawn): 150

1. CCC[C@H]1C(=O)N(C(CCC(=O)OC)Sc2ccc(N)cc2)S(=O)(=O)N1C (stereo partly drawn)
2. CCC[C@H]1C(=O)N(C(CCC(=O)OC)Sc2ccc(F)cc2)S(=O)(=O)N1C (stereo partly drawn)
3. CCC[C@H]1C(=O)N(C(CCC(=O)OC)Sc2ccc(NC(=O)OC(C)(C)C)cc2)S(=O)(=O)N1C (stereo partly drawn)
4. CCC[C@H]1C(=O)N(C(CCC(=O)OC)Sc2ccc(Cl)cc2)S(=O)(=O)N1C (stereo partly drawn)
Query block: hey, can you rank those compounds up there by Ratio? biggest number first please Give the order by naming the labels one after another as requested.
Result block: 2, 3, 1, 4
(2: 320, 3: 170, 1: 110, 4: 20)
